Kindly state IC50 for each of the entries shown.
- system tested: DRB4*0101 (Homo sapiens, UniProt P01903+P13762, G164S)
- test description: biochemical
- Format: binding
No end group written: not given here.
Give the value in nM but do not write nM after it.

[ask] Can you look up the measured IC50 of RKTIAKALSSILNVP [Peptide 89.0123] for me?
[reply] 746

[ask] Record: IHFLKGCIISYVNSK [Peptide 89.0147]
[reply] 1360

[ask] Input RDSVDSAPILTAFNS [Peptide 89.0156]
[reply] 1310

----------
Provide the recorded pIC50 for the entries that follow.
- system tested: DRB1*1501 (Homo sapiens, UniProt P01903+P01911)
- test description: biochemical
- Format: binding
pIC50: −log10 of the molar value.

[ask] So what's the measured pIC50 for this one? CSCC[C@H](NC(=O)[C@@H](NC(=O)[C@H](CCCCN)NC(=O)[C@@H](NC(=O)[C@H](C)NC(=O)[C@H](CC(=O)O)NC(=O)[C@@H](N)[C@@H](C)O)C(C)C)C(C)C)C(=O)N[C@@H](CC(=O)O)C(=O)N[C@@H](CC(C)C)C(=O)N1CCC[C@H]1C(=O)N[C@H](C(=O)N[C@@H](CCC(N)=O)C(=O)N[C@@H](CCC(=O)O)C(=O)N1CCC[C@H]1C(=O)N[C@@H](C)C(=O)O)[C@@H](C)O [Peptide 68.0074]
[reply] < 4.70

[ask] Proceed to CC(C)C[C@H](NC(=O)[C@H](CC(=O)O)NC(=O)[C@@H](NC(=O)[C@@H](NC(=O)[C@H](CCC(=O)O)NC(=O)[C@@H]1CCCN1C(=O)[C@H](CCC(N)=O)NC(=O)[C@H](CC(C)C)NC(=O)[C@H](CC(=O)O)NC(=O)[C@@H](N)CC(C)C)[C@@H](C)O)[C@@H](C)O)C(=O)N[C@@H](Cc1ccc(O)cc1)C(=O)N[C@@H](CS)C(=O)N[C@@H](Cc1ccc(O)cc1)C(=O)N[C@@H](CCC(=O)O)C(=O)N[C@@H](CCC(N)=O)C(=O)O [Peptide 1543.04]
[reply] < 4.70

[ask] How about CC(C)C[C@H](NC(=O)CNC(=O)[C@H](Cc1ccccc1)NC(=O)[C@H](CCC(=O)O)NC(=O)[C@H](CCCCN)NC(=O)[C@@H](N)Cc1c[nH]c2ccccc12)C(=O)N[C@@H](CC(=O)O)C(=O)N[C@@H](CO)C(=O)N[C@H](C(=O)N[C@@H](CCC(=O)O)C(=O)N[C@@H](CC(C)C)C(=O)N[C@@H](C)C(=O)N[C@@H](Cc1c[nH]cn1)C(=O)N[C@@H](Cc1ccc(O)cc1)C(=O)N[C@@H](CC(=O)O)C(=O)O)C(C)C [Peptide 68.0088] ?
[reply] < 4.70

----------
Kindly supply the reported pIC50 values for the records listed here.
- system tested: DRB1*0405 (Homo sapiens, UniProt P01903+P01911, A100R/A169T/D86S/F76Y/I96L/K127E/L162R/M171V/N62H/P40V/Q125Y/R42H/S133A/S149N/S66Y/V115G/V209L/W38E)
- test description: biochemical
- Format: binding
No end group written: not given here.
Conceptually, pIC50 converts a concentration in mol/L into minus its log10.

[ask] May I ask what pIC50 has been recorded for CQAIELQLALEALNK [Peptide 90.0014] ?
[reply] 5.82

[ask] Same read-out for QWAYDNDIVDDSEIA [Peptide 90.0036] ?
[reply] 5.37

[ask] Subsequent entry: GKSYFGMSLIQFLKG [Peptide 89.0075]
[reply] 5.88

[ask] Then this sequence: RFHNIMGRWTGRCSE [Peptide 1543.60]
[reply] 5.74

[ask] Repeat with FIHFIQGAVISFVNS [Peptide 89.0036]
[reply] 5.91

[ask] Same again, this time with SWGMVVLLLVRYKCG [Peptide 89.0005]
[reply] 6.40

[ask] Moving on to LKEFLKGTPKKNCIL [Peptide 89.0086]
[reply] 4.83

[ask] // next record RNTFLDVVTIPNSVQ [Peptide 1601.39]
[reply] 6.49

[ask] Next up: VMAIFGVNPTVAEGF [Peptide 89.0080]
[reply] 7.77

[ask] Please give the result for HALFTAQEAKQHRDA [Peptide 89.0001] too.
[reply] 5.32

[ask] What do you have for EYILDLHPEPTDLFC [Peptide 1543.51] ?
[reply] 5.94
